system: HIV-1 integrase (with human LEDGF/p75); experiment: blockers of LEDGF/p75-dependent integrase strand transfer – biochemical, TR-FRET, high throughput, primary screen (AID 743269); conditions: TR-FRET IN-LEDGF/p75 DNA integration, Eu/Cy5; at 3.7 µM;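 further: signal is the Cy5 over europium emission ratio at 671 and 618 nm; 0% = plate median of compound wells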
The whole screen tested about 370,000 compounds, of which about 2,400 (0.65%) were called active.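 How the source made its calls: active means inhibition above the screen-wide mean plus 3 SD (cut at about 13% in these data); inactive means the rest.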 For the sample, actives were picked, then their nearest neighbours and some compounds at random.
Your answer must be one of the following: yes (1) for active, no (0) for inactive

The examples below pair each entry with its known result.
Problem: What outcome does the record of this test show for Cc1cccc2cc3c(N)c(C(=O)N4CCCc5ccccc54)sc3nc12 ?
Solution: no (0)

Problem: Lookup Cc1ccc(C(=O)N2CCCc3ccccc32)c(Cl)c1
Solution: yes (1)

Problem: Proceed to COC(=O)[C@H](C(C)C)N(CCc1cn(Cc2ccccc2)nn1)S(=O)(=O)c1ccc(F)cc1Br
Solution: no (0)

Problem: Could you do the same for Cc1ccc2c(c1)N(CC(=O)N1CCCc3ccccc31)C(=O)C(C)O2 (stereo not given) , please?
Solution: no (0)

# next compound below
Problem: Which outcome did this test record for the compound CN(Cc1ccc(F)cc1)C(=O)CN1C(=O)c2ccccc2S1(=O)=O ?
Solution: yes (1)

---

system: HIV-1 integrase (with human LEDGF/p75); test: blockers of LEDGF/p75-dependent integrase strand transfer – biochemical, TR-FRET, high throughput, primary screen (AID 743269); conditions: TR-FRET IN-LEDGF/p75 DNA integration, Eu/Cy5; at 3.7 µM; stronger effect = higher value;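 further: signal is the Cy5 over europium emission ratio at 671 and 618 nm; 0% = plate median of compound wells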
The campaign covered roughly 370,000 compounds. About 2,400 (0.65%) were called active. This excerpt belongs to a sample that is enriched for actives.
The entries below are paired with their reported inhibition.

Problem: Provide value of inhibition for this record tested with HIV-1 integrase (with human LEDGF/p75): COC(=O)[C@]12C[C@H](CC(=O)NCCc3ccccc3OC)C(=O)N(Cc3ccco3)C1=C[C@H](C(C)C)O[C@@H]2C1CC1
Solution: -0.43% (inactive)

Problem: Then what about the molecule O=C(NCc1ccco1)C1CCCN(S(=O)(=O)c2ccc(Cl)s2)C1 (stereo not given) ?
Solution: -0.9% (inactive)

Problem: Now the same for N#Cc1ccc(OC[C@@H](O)CN2CCC(C(O)(c3ccccc3)c3ccccc3)CC2)c(F)c1
Solution: 1.07% (inactive)

Problem: Follow-up entry: O=C(C1CCN(S(=O)(=O)c2ccccc2)CC1)N1CCN(C2CCCCC2)CC1
Solution: -2.53% (inactive)

Next:
Problem: Form field: inhibition recorded for Cc1ccc(C)c(NC(=O)CCS(=O)(=O)c2ccccc2)c1 with HIV-1 integrase (with human LEDGF/p75) (enter value)
Solution: 1.44% (inactive)

---

tested on: HIV-1 integrase (with human LEDGF/p75); experiment: blockers of LEDGF/p75-dependent integrase strand transfer – biochemical, TR-FRET, high throughput, primary screen (AID 743269); conditions: TR-FRET IN-LEDGF/p75 DNA integration, Eu/Cy5; at 3.7 µM;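 further: signal is the Cy5 over europium emission ratio at 671 and 618 nm; 0% = plate median of compound wells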
About 2,400 (0.65%) of roughly 370,000 compounds were called active.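 The calls were made as follows: active = inhibition above the screen-wide mean plus 3 SD (cut at about 13% in these data); inactive = the rest.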 The full list was thinned out, with actives kept by preference.
The reply should name one outcome from yes (1) = active, no (0) = inactive

As a guide, the following entries are already answered.
Problem: GET /call?item= CN[C@H]1C[C@H]2c3cc(N4CCOCC4)ccc3CCN2C[C@H]1[C@H](C)O returns the recorded outcome of this test.
Solution: no (0)

Problem: Repeat with C=CCN1C(=O)[C@@H](CC(=O)N2CCN(C(=O)OCC)CC2)[C@]2(C(=O)OCC)CCCCC/C=C/12
Solution: no (0)

Problem: Ok, now Cc1ccc(C(=O)C2CCN(CC(=O)NCCC(C)C)CC2)cc1
Solution: no (0)

Problem: Further, for C=CCN(Cc1ccc2c(c1)OCO2)C(C#CC1CC1)C(C)(C)C (stereo not given) ?
Solution: no (0)

Problem: Try this molecule next: CCOC(=O)CN1C(=O)C(O)(CC(=O)c2ccccn2)c2ccccc21 (stereo not given)
Solution: no (0)

Next:
Problem: Called result for CN(CCO)c1cccc2c1S(=O)(=O)N(Cc1cn(Cc3ccc(C(F)(F)F)cc3)nn1)Cc1ccccc1O2
Solution: no (0)

Problem: Now consider COc1cccc(/C=C2\CC3(OC(C)=O)CCCN2C3)c1 (stereo not given) .
Solution: no (0)

Problem: Here is the next molecule: Cc1ccc(S(=O)(=O)N[C@H](CO)C(C)C)cc1
Solution: no (0)

Problem: Try CCC(=O)c1c(CC)c2n3c1=CC[C@H]3CC(Br)C=2 (stereo not given in full) next.
Solution: no (0)

Problem: Another molecule to look at: C=CCN1C(=O)C(O)(CC(=O)c2ccccn2)c2ccccc21 (stereo not given)
Solution: yes (1)

Problem: Next molecule up: CCOC(=O)c1c(C)oc2cc(Sc3ccccc3)c(O)c(O)c12
Solution: yes (1)

Problem: Try this molecule next: COC(=O)C12C=C3CC(c4ccccc4)=C3C(=O)N1Cc1[nH]c3ccccc3c1C2 (stereo not given)
Solution: no (0)

Problem: Now consider N[C@@H](Cc1ccccc1)C(=O)N1CCC[C@@H]1C(=O)N1CCC2CCN(S(=O)(=O)c3ccccc3)CC21 (stereo not given in full) .
Solution: no (0)

Problem: Check CCC(=O)OCCCN1C(=O)CCC12CCC(c1ccccc1)CC2 (stereo not given) too.
Solution: no (0)

Problem: Next record, please: C[C@@H]1COc2cccc(N3CCCC3)c2S(=O)(=O)N1C
Solution: no (0)

Problem: Please answer likewise for O=C(CNC(=O)c1ccccc1)OC(C(=O)Nc1cc([N+](=O)[O-])ccc1F)c1ccccc1 (stereo not given)
Solution: no (0)

Problem: For COc1ccc(C(=O)C(C)OC(=O)c2cccc(S(=O)(=O)Nc3c(C)n(C)n(-c4ccccc4)c3=O)c2)cc1 (stereo not given) then?
Solution: no (0)

Problem: Query O=C(CC1(O)C(=O)N(CN2CCOCC2)c2ccccc21)c1ccccc1 (stereo not given) next
Solution: no (0)

Problem: Now the same for Cc1ccc(S(=O)(=O)/N=C2\C=C(NS(=O)(=O)c3ccc(C)cc3)C(=O)c3ccccc32)cc1
Solution: yes (1)

Problem: Follow-up entry: COC1=C[C@H](C(=O)NCCNC(C)=O)[C@H](C)[C@@H](c2ccccc2)CC1=O
Solution: no (0)

---

system: HIV-1 integrase (with human LEDGF/p75); assay: blockers of LEDGF/p75-dependent integrase strand transfer – biochemical, TR-FRET, high throughput, primary screen (AID 743269); settings: TR-FRET IN-LEDGF/p75 DNA integration, Eu/Cy5; at 3.7 µM;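 further: signal is the Cy5 over europium emission ratio at 671 and 618 nm; 0% = plate median of compound wells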
Among all 370,000 compounds or so, about 2,400 (0.65%) were called active.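 How the source made its calls: active means inhibition above the screen-wide mean plus 3 SD (cut at about 13% in these data); inactive means the rest.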 Only a selection was taken, and actives are over-represented in it overall.
# output must be one of true for active, false for inactive

Would you please look over these solved cases?
Problem: Hello, I am checking results. What call was entered for NNc1cccc(C=Cc2ccccc2)cc1=O ?
Solution: true

Problem: Further, for O=C(NC1CCC1)c1ccc(C#Cc2cccc(F)c2)c[n+]1[O-] ?
Solution: false

Problem: Further, for COc1ccc(C2NC(=O)N(C)C(C)=C2[N+](=O)[O-])cc1 (stereo unspecified) ?
Solution: false

Problem: Please answer likewise for Cc1ccc(Cn2cc(CN3[C@@H](CC(C)C)COc4ccc(Cl)cc4S3(=O)=O)nn2)cc1
Solution: false

Problem: And then COc1ccccc1C(=O)NC1CCCCN(C(C)C)C1=O (stereo unspecified) , what is it?
Solution: false

Problem: Entry to check: COC(=O)C1=C(C)N(C)C(=O)NC1c1ccc([N+](=O)[O-])o1 (stereo unspecified)
Solution: true

Problem: Now the same for Cc1ccc(-c2nnc(SCC(=O)Nc3ccc(Oc4ccccc4)cc3)n2Cc2ccco2)cc1
Solution: false

Problem: Also need CCOC(=O)[C@]12CCCC=C1N(CCCOC)C(=O)[C@@H]2CC(=O)N1CCOCC1 , thanks.
Solution: false

Problem: // next record CC(CCN1CCC(C(O)(c2ccccc2)c2ccccc2)CC1)Oc1ccc(Cl)cc1 (stereo unspecified)
Solution: false

Problem: Follow-up entry: O=C(CSc1nc2sc3c(c2c(=O)n1-c1ccccc1)CCCC3)NN=Cc1ccc(OCc2ccccc2)cc1
Solution: false

More entries:
Problem: Call for entry CC(=O)N1CCc2cc(S(=O)(=O)NCCC(=O)N3CCCC3)ccc21 :
Solution: false

Problem: Next compound: CC(C)(C)NC(=O)C(c1cccnc1)N(C(=O)c1cnco1)c1ccc(C(C)(C)C)cc1 (stereo unspecified)
Solution: false

Problem: Now this one: Cc1c(CC(=O)N2CCN(C(=O)C3COc4ccccc4O3)CC2)c(=O)oc2c(O)c(O)ccc12 (stereo unspecified)
Solution: true
